Hey, just so you know, these numbers are from patent US12692241B2.

Below: a set of entries, each annotated with reported suppression rate of IL-1β p17 relative to the solvent-administered group.
# System: IL-1β p17 in cerebrospinal fluid
# run_description: Rat central nervous system IL-1β production test
# Type: in vivo
# conditions_used: male Wistar rats, oral, Dose 1 mg/kg, LPS and BzATP in cisterna magna
reported_metric: suppression rate of IL-1β p17 relative to the solvent-administered group

{"columns": ["compound", "result"],
 "data": [
  ["Cc1nc(N[C@@H]2CCCC[C@H]2N)nnc1-c1ccc(C(F)(F)F)cc1O [Ex132]", "88%"],
  ["COc1ccc(-c2nnc(N[C@@H]3CCCC[C@H]3O)nc2C)c(O)c1 [Ex59]", "54%"],
  ["Cc1nc(N[C@@H]2CCCC[C@H]2O)nnc1-c1ccc(OC(F)F)cc1O [Ex131]", "−54%"],
  ["Cc1nc(N[C@@H]2CCCN(C)C2)nnc1-c1ccc(C(F)(F)F)cc1O [Ex164]", "81%"],
  ["Cc1nc(N[C@@H]2CCC[C@H](O)C2)nnc1-c1ccc(C(F)(F)F)cc1O [Ex75]", "73%"]
]}
